- TARGET UNDER TEST: Adrenergic receptor alpha-1 (Rattus norvegicus, UniProt P15823+P23944+P43140)
- ASSAY NOTES: In vitro binding affinity towards alpha-1 adrenergic receptor in rat cerebral cortex membranes
- Type: cell membranes, Membrane
Give Ki for every item shown.
Reply with just the number (in nM).

I'd like to know its Ki. The compound in question is CCCNC(=O)c1ccccc1N1CCN(CCCCN2C(=O)C3CCCCN3C2=O)CC1 (stereo unspecified)
521

I'd like to know its Ki. The compound in question is CCCOC(=O)c1ccccc1N1CCN(CCCCN2CC(=O)N3CCCCC3C2=O)CC1 (stereo unspecified)
392

I'd like to know its Ki. The compound in question is CCCCOc1ccccc1N1CCN(CCCCN2C(=O)C3CCCCN3C2=O)CC1 (stereo unspecified)
5

I'd like to know its Ki. The compound in question is CCCOC(=O)c1ccccc1N1CCN(CCCN2C(=O)C3CCCCN3C2=O)CC1 (stereo unspecified)
13

I'd like to know its Ki. The compound in question is O=C1C2CCCN2C(=O)N1CCCN1CCN(c2cccc(Br)c2)CC1 (stereo unspecified)
25

I'd like to know its Ki. The compound in question is CCCNC(=O)c1ccccc1N1CCN(CCCN2CC(=O)N3CCCCC3C2=O)CC1 (stereo unspecified)
811

I'd like to know its Ki. The compound in question is COc1ccccc1N1CCN(CCCCN2CC(=O)N3CCCC3C2=O)CC1 (stereo unspecified)
25

I'd like to know its Ki. The compound in question is CC(C)C(=O)Nc1cccc(N2CCN(CCCN3C(=O)C4CCCCN4C3=O)CC2)c1 (stereo unspecified)
4430

I'd like to know its Ki. The compound in question is CC(C)C(=O)Nc1cccc(N2CCN(CCCCN3C(=O)C4CCCN4C3=O)CC2)c1.Cl (stereo unspecified)
5425

I'd like to know its Ki. The compound in question is CCCCOc1ccccc1N1CCN(CCCN2C(=O)C3CCCN3C2=O)CC1 (stereo unspecified)
6.4

I'd like to know its Ki. The compound in question is O=C1C2CCCCN2C(=O)N1CCCCN1CCN(c2ccccc2Oc2ccccc2)CC1 (stereo unspecified)
2.4

I'd like to know its Ki. The compound in question is Cc1ccccc1N1CCN(CCCN2C(=O)C3CCCCN3C2=O)CC1 (stereo unspecified)
5.7

I'd like to know its Ki. The compound in question is CC(C)C(=O)Nc1cccc(N2CCN(CCCCN3CC(=O)N4CCCCC4C3=O)CC2)c1 (stereo unspecified)
16140

I'd like to know its Ki. The compound in question is CC(C)C(=O)Nc1cccc(N2CCN(CCCN3CC(=O)N4CCCC4C3=O)CC2)c1 (stereo unspecified)
1440

I'd like to know its Ki. The compound in question is O=C1C2CCCCN2C(=O)N1CCCCN1CCN(c2ccccc2Br)CC1 (stereo unspecified)
6.2

I'd like to know its Ki. The compound in question is CCCNC(=O)c1ccccc1N1CCN(CCCN2C(=O)C3CCCN3C2=O)CC1 (stereo unspecified)
608

I'd like to know its Ki. The compound in question is Cc1ccccc1N1CCN(CCCCN2CC(=O)N3CCCCC3C2=O)CC1 (stereo unspecified)
27

I'd like to know its Ki. The compound in question is N#Cc1ccccc1N1CCN(CCCN2C(=O)C3CCCCN3C2=O)CC1 (stereo unspecified)
8.2

I'd like to know its Ki. The compound in question is COc1ccccc1N1CCN(CCCN2CC(=O)N3CCCCC3C2=O)CC1 (stereo unspecified)
29

I'd like to know its Ki. The compound in question is N#Cc1ccccc1N1CCN(CCCCN2CC(=O)N3CCCCC3C2=O)CC1 (stereo unspecified)
30

I'd like to know its Ki. The compound in question is CCCCOc1ccccc1N1CCN(CCCN2CC(=O)N3CCCCC3C2=O)CC1 (stereo unspecified)
13

====

Give Ki for every item shown.
- TARGET UNDER TEST: Adrenergic receptor alpha-1 (Rattus norvegicus, UniProt P15823+P23944+P43140)
- Sequence (P15823 whole entry): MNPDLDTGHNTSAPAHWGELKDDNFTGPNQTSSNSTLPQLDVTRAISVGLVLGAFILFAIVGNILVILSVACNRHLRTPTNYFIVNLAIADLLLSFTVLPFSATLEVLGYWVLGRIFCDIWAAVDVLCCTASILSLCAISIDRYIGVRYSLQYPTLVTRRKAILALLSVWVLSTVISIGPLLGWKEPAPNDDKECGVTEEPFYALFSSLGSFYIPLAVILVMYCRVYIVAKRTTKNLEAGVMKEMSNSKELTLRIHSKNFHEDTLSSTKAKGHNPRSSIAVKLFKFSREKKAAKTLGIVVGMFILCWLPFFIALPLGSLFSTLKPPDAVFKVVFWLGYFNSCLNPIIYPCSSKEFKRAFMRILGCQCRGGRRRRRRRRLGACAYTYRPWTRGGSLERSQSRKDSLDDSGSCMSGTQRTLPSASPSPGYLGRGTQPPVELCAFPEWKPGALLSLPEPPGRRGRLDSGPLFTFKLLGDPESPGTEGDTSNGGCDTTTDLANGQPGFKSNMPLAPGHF
- Sequence (P23944 whole entry): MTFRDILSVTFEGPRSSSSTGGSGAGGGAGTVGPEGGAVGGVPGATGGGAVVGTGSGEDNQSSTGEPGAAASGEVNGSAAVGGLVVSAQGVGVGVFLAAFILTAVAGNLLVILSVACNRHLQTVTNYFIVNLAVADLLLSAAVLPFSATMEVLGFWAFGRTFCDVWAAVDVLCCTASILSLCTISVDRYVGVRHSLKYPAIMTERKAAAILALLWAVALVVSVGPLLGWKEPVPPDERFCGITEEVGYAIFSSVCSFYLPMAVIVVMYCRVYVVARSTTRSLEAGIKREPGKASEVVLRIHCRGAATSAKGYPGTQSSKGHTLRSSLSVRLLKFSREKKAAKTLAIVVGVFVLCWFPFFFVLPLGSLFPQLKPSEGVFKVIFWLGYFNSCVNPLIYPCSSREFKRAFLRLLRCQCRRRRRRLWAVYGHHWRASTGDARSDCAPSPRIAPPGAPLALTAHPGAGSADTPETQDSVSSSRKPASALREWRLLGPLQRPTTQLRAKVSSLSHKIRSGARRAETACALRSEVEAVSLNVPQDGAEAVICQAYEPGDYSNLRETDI
- Sequence (P43140 whole entry): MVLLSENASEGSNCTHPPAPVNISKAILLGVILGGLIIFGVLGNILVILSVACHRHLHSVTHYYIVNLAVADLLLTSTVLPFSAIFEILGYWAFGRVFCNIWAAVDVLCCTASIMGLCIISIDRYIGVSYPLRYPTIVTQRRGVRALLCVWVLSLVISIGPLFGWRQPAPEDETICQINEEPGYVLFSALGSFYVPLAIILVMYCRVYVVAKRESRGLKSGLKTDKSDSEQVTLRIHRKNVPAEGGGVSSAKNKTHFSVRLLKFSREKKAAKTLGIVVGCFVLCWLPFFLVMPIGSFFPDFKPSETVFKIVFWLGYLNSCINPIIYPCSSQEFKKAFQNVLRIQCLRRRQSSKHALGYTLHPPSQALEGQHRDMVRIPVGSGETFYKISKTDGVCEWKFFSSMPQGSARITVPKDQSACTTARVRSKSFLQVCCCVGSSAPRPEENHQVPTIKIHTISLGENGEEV
- ASSAY NOTES: In vitro binding affinity towards alpha-1 adrenergic receptor in rat cerebral cortex membranes
- Assay type: cell membranes, Membrane
Reply with just the number (in nM).

Report Ki for CCCCOc1ccccc1N1CCN(CCCCN2CC(=O)N3CCCC3C2=O)CC1 (stereo not given) tested on Adrenergic receptor alpha-1 (Rattus norvegicus, UniProt P15823+P23944+P43140).
10.5

Report Ki for CCCNC(=O)c1ccccc1N1CCN(CCCCN2CC(=O)N3CCCC3C2=O)CC1 (stereo not given) tested on Adrenergic receptor alpha-1 (Rattus norvegicus, UniProt P15823+P23944+P43140).
1354

Report Ki for Cc1ccccc1N1CCN(CCCCN2C(=O)C3CCCN3C2=O)CC1 (stereo not given) tested on Adrenergic receptor alpha-1 (Rattus norvegicus, UniProt P15823+P23944+P43140).
7

Report Ki for O=C1C2CCCN2C(=O)CN1CCCCN1CCN(c2cccc(C(F)(F)F)c2)CC1 (stereo not given) tested on Adrenergic receptor alpha-1 (Rattus norvegicus, UniProt P15823+P23944+P43140).
72

Report Ki for Nc1cccc(N2CCN(CCCCN3C(=O)C4CCCCN4C3=O)CC2)c1 (stereo not given) tested on Adrenergic receptor alpha-1 (Rattus norvegicus, UniProt P15823+P23944+P43140).
231

Report Ki for CCCOC(=O)c1ccccc1N1CCN(CCCN2CC(=O)N3CCCC3C2=O)CC1 (stereo not given) tested on Adrenergic receptor alpha-1 (Rattus norvegicus, UniProt P15823+P23944+P43140).
12

Report Ki for O=C1C2CCCCN2C(=O)N1CCCCN1CCN(c2cccc(Br)c2)CC1 (stereo not given) tested on Adrenergic receptor alpha-1 (Rattus norvegicus, UniProt P15823+P23944+P43140).
5.9

Report Ki for Cc1ccccc1N1CCN(CCCN2CC(=O)N3CCCC3C2=O)CC1 (stereo not given) tested on Adrenergic receptor alpha-1 (Rattus norvegicus, UniProt P15823+P23944+P43140).
17

Report Ki for Nc1cccc(N2CCN(CCCN3C(=O)C4CCCN4C3=O)CC2)c1 (stereo not given) tested on Adrenergic receptor alpha-1 (Rattus norvegicus, UniProt P15823+P23944+P43140).
393
